Listing: total protein half-life in vivo of selected sequences
Experiment: total protein half-life in vivo (active degradation + dilution); higher = more stable protein
Conditions: wild type E. coli NCM3722; growth: P-lim chemostat; doubling time 6 h
Write the answer as a number in h, unit excluded.

MNKTITALAIMMASFAANASVLPETPVPFKSGTGAIDNDTVYIGLGSAGTAWYKLDTQAKDKKWTALAAFPGGPRDQATSAFIDGNLYVFGGIGKNSEGLTQVFNDVHKYNPKTNSWVKLMSHAPMGMAGHVTFVHNGKAYVTGGVNQNIFNGYFEDLNEAGKDSTAIDKINAHYFDKKAEDYFFNKFLLSFDPSTQQWSYAGESPWYGTAGAAVVNKGDKTWLINGEAKPGLRTDAVFELDFTGNNLKWNKLAPVSSPDGVAGGFAGISNDSLIFAGGAGFKGSRENYQNGKNYAHEGLKKSYSTDIHLWHNGKWDKSGELSQGRAYGVSLPWNNSLLIIGGETAGGKAVTDSVLITVKDNKVTVQN    5.97
MTTRQHSSFAIVFILGLLAMLMPLSIDMYLPALPVISAQFGVPAGSTQMTLSTYILGFALGQLIYGPMADSFGRKPVVLGGTLVFAAAAVACALANTIDQLIVMRFFHGLAAAAASVVINALMRDIYPKEEFSRMMSFVMLVTTIAPLMAPIVGGWVLVWLSWHYIFWILALAAILASAMIFFLIKETLPPERRQPFHIRTTIGNFAALFRHKRVLSYMLASGFSFAGMFSFLSAGPFVYIEINHVAPENFGYYFALNIVFLFVMTIFNSRFVRRIGALNMFRSGLWIQFIMAAWMVISALLGLGFWSLVVGVAAFVGCVSMVSSNAMAVILDEFPHMAGTASSLAGTFRFGIGAIVGALLSLATFNSAWPMIWSIAFCATSSILFCLYASRPKKR    6.06
MSDKFGEGRDPYLYPGLDIMRNRLNIRQQQRLEQAAYEMTALRAATIELGPLVRGLPHLRTIHRQLYQDIFDWAGQLREVDIYQGDTPFCHFAYIEKEGNALMQDLEEEGYLVGLEKAKFVERLAHYYCEINVLHPFRVGSGLAQRIFFEQLAIHAGYQLSWQGIEKEAWNQANQSGAMGDLTALQMIFSKVVSEAGESE    6.02
MSLTRLLIRDFRNIETADLALSPGFNFLVGANGSGKTSVLEAIYTLGHGRAFRSLQIGRVIRHEQEAFVLHGRLQGEERETAIGLTKDKQGDSKVRIDGTDGHKVAELAHLMPMQLITPEGFTLLNGGPKYRRAFLDWGCFHNEPGFFTAWSNLKRLLKQRNAALRQVTRYEQLRPWDKELIPLAEQISTWRAEYSAGIAADMADTCKQFLPEFSLTFSFQRGWEKETEYAEVLERNFERDRQLTYTAHGPHKADLRIRADGAPVEDTLSRGQLKLLMCALRLAQGEFLTRESGRRCLYLIDDFASELDDERRGLLASRLKATQSQVFVSAISAEHVIDMSDENSKMFTVEKGKITD [P0A7H0]    4.06

From here, focus on the item given below.
Retrieve total protein half-life in vivo measured for MGFKCGIVGLPNVGKSTLFNALTKAGIEAANFPFCTIEPNTGVVPMPDPRLDQLAEIVKPQRTLPTTMEFVDIAGLVKGASKGEGLGNQFLTNIRETEAIGHVVRCFENDNIIHVSGKVNPADDIEVINTELALADLDTCERAIHRVQKKAKGGDKDAKAELAVLEKCLPQLENAGMLRALDLSAEEKAAIRYLSFLTLKPTMYIANVNEDGFENNPYLDQVREIAAKEGSVVVPVCAAVEADIAELDDEERDEFMQELGLEEPGLNRVIRAGYKLLNLQTYFTAGVKEVRAWTIPVGATAPQAAGKIHTDFEKGFIRAQTISFEDFITYKGEQGAKEAGKMRAEGKDYIVKDGDVMNFLFNV [P0ABU2] and print it.
5.12
